Values were extracted from PubChem BioAssay AID652039.

Target: Kallikrein-7 (Homo sapiens) (UniProt P49862)
Sequence (P49862 whole entry, looked up): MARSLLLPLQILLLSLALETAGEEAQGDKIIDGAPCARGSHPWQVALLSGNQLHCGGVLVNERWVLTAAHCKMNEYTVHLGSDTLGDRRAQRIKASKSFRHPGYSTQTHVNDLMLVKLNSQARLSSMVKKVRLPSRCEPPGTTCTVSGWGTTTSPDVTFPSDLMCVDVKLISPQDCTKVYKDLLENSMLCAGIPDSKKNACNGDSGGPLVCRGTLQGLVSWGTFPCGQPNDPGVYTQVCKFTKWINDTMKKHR
Experiment: activation of human kallikrein-7 proenzyme – biochemical, fluorescence intensity, primary screen (AID 652039)
Conditions: purified proKLK7, EDANS-DABCYL substrate fluorescence; at 7 µM; active compounds read high; 100% is mature enzyme control, 0% vehicle
In all, about 370,000 compounds went through this assay and about 3,300 (0.89%) were called active. The sample as a whole holds a higher share of actives than the screen did.
Here the recorded activation is given for each entry.
Respond numerically; units are % and should not be typed.

Study these solved cases before continuing.
compound=CCOc1cc(C2C(C(=O)OC)=CN(C3CCCC3)C=C2C(=O)OC)cc(Br)c1O target_system="Kallikrein-7 (Homo sapiens) (UniProt P49862)" property_name=activation numeric_value=-0.82
compound=O=C(CSc1nc2c(c(=O)[nH]1)CCCC2)N1CCCCC1 target_system="Kallikrein-7 (Homo sapiens) (UniProt P49862)" property_name=activation numeric_value=0.8
compound=Cc1cc(N2CCN(C)CC2)nc2ccc(NC(=S)N3CCOCC3)cc12 target_system="Kallikrein-7 (Homo sapiens) (UniProt P49862)" property_name=activation numeric_value=7.61
compound=CCOC(=O)[C@@]12CCC3=C1N(CCC3)C(=O)[C@H](CC(=O)N1CCN(C(=O)c3ccco3)CC1)C2 target_system="Kallikrein-7 (Homo sapiens) (UniProt P49862)" property_name=activation numeric_value=0.06
compound=CN(C)CCCn1c(N)c(C#N)c2nc(C#N)c(C#N)nc21 target_system="Kallikrein-7 (Homo sapiens) (UniProt P49862)" property_name=activation numeric_value=78.7
compound="C=C(C)C1CC23C(=O)C4(C(=O)c5ccccc5)C[C@@]5(C)CCC(CC2C1(C)C)(C4=O)C35OC (stereo partly specified)" target_system="Kallikrein-7 (Homo sapiens) (UniProt P49862)" property_name=activation numeric_value=-0.91

(Q) Report activation for CCOC(=O)[C@]12CCCCC/C=C\1N(Cc1ccc(OC)cc1)C(=O)[C@H]2CC(=O)NCCCN1CCCC1=O tested on Kallikrein-7 (Homo sapiens) (UniProt P49862).
(A) -0.22

(Q) Quick check: activation on Kallikrein-7 (Homo sapiens) (UniProt P49862), item O=C(NC1CCCC1)C1CSCCS(=O)(=O)N1Cc1ccccc1 (stereo unspecified) ?
(A) 0.33

(Q) Enter reported activation observed with Kallikrein-7 (Homo sapiens) (UniProt P49862) for CC(C)(C)OC(=O)NCc1cc(F)ccc1/C=C/S(=O)(=O)NCCc1ccccc1
(A) 0.29

(Q) Recorded activation for CCCCCCNC(=O)O[C@H]1CN(C(=O)OC(C)C)N(C(=O)OC(C)C)[C@@H]2CN(S(=O)(=O)c3ccc(C)cc3)C[C@]12O with Kallikrein-7 (Homo sapiens) (UniProt P49862), please?
(A) -0.38

(Q) Item CCCSc1ncccc1C(=O)O with Kallikrein-7 (Homo sapiens) (UniProt P49862) - activation?
(A) 0.67

(Q) Tell me reported activation for COc1ccc(C(=O)CSc2nnc(-c3cnccn3)n2-c2ccc(C)cc2)cc1 , tested with Kallikrein-7 (Homo sapiens) (UniProt P49862).
(A) 0.34

(Q) Reported activation for Kallikrein-7 (Homo sapiens) (UniProt P49862), given O=C(CSc1nnc(-c2ccccn2)n1-c1ccccc1)Nc1ccc2cn[nH]c2c1 ?
(A) 0.28
